Target: T1, human ROR1 extracellular domain-Fc fusion (human, UniProt Q01973 30-406)
T1 construct: extracellular domain; also called hROR1; ROR1-hFc
Assay: SPR
Each record here notes measured kon.
Write the number in M⁻¹ s⁻¹ without appending the unit.

{"binder": "P3A1 dimer without tag (VNAR, also called P3A1 dimer No tag) TRVDQTPRTATKETGESLTINCVLTDTSYGLYSTSWFRKNPGTTDWERMSIGGRYVESVNKGAKSFSLRIKDLTVADSATYYCKAREARHPWLRQWYDGAGTVLTVNGGGGSGGGGSGGGGSGGGGSGGGGSTRVDQTPRTATKETGESLTINCVLTDTSYGLYSTSWFRKNPGTTDWERMSIGGRYVESVNKGAKSFSLRIKDLTVADSATYYCKAREARHPWLRQWYDGAGTVLTVN", "reported": "1.67e+06"}
{"binder": "P3A1 VNAR with 6xHis tag (VNAR, not shown: small tags and cut ends, shark VNAR domain; also called P3A1 6xHis) VNAR: TRVDQTPRTATKETGESLTINCVLTDTSYGLYSTSWFRKNPGTTDWERMSIGGRYVESVNKGAKSFSLRIKDLTVADSATYYCKAREARHPWLRQWYDGAGTVLTVN", "reported": "2.92e+06"}
{"binder": "P3A1-[G4S]5-P3A1 homodimer with His6Myc tag (VNAR, genetic fusion of two VNAR domains; also called P3A1 dimer 6xHis myc; P3A1-P3A1) TRVDQTPRTATKETGESLTINCVLTDTSYGLYSTSWFRKNPGTTDWERMSIGGRYVESVNKGAKSFSLRIKDLTVADSATYYCKAREARHPWLRQWYDGAGTVLTVNGGGGSGGGGSGGGGSGGGGSGGGGSTRVDQTPRTATKETGESLTINCVLTDTSYGLYSTSWFRKNPGTTDWERMSIGGRYVESVNKGAKSFSLRIKDLTVADSATYYCKAREARHPWLRQWYDGAGTVLTVNQASGAHHHHHHGAEFEQKLISEEDL", "reported": "2.08e+06"}

Attention now turns to another entry.
Provide one value: measured kon of P3A1 VNAR with His6Myc tag (VNAR, shark VNAR domain; also called P3A1 6xHis myc) VNAR: TRVDQTPRTATKETGESLTINCVLTDTSYGLYSTSWFRKNPGTTDWERMSIGGRYVESVNKGAKSFSLRIKDLTVADSATYYCKAREARHPWLRQWYDGAGTVLTVNQ
980000
